# System: IMR-90
# assay: Selectivity index, ratio of IC50 for human IMR90 cells to IC50 for human MCF7 cells
# Type: functional
readout-kind: Ratio IC50
Write no unit; give the number alone.

Use these answered entries as a reference point.
CCCCCC(=O)Nc1cc2c(cc1F)c(=O)c(C(=O)OCC)cn2CC : 9
CCCCCCCC(=O)Nc1cc2c(cc1F)c(=O)c(C(=O)OCC)cn2CC : 11.5
CCCCCCCCCCCCCC(=O)Nc1cc2c(cc1F)c(=O)c(C(=O)OCC)cn2CC : 9.4

Shift focus to the following entry.
input: Any idea what Ratio IC50 was measured for "CCCCCCCCCCCC(=O)Nc1cc2c(cc1F)c(=O)c(C(=O)OCC)cn2CC" ?
output: 7.1
